// data source = PubChem BioAssay (NCI)

# Tested on: UACC-62 melanoma
# PROTOCOL: NCI tumour cell line growth inhibition, 48 h
*1 amine or outer side, *2 acyl side, *3 side chain or, on linkers, in order; H or OH if unused. Where a SMILES comes first, the peptide text is derived from it. Bridges are numbered along the chain shown (N, C = ends). Roman numbers before positions name the chains, in order. [ ]: non-standard residue; d: D form. Actinocin(9to1) = Cc1c2oc3c(C)ccc(C(=O)[*:1])c3nc-2c(C(=O)[*:2])c(N)c1=O; NMeV = CN[CH](C(=O)O)C(C)C; Sar = CNCC(=O)O
PROPERTY_NAME: TGI

compound=O=C(O)C(Cl)Cl system_name="UACC-62 melanoma" reported_measurement="> 10000 µM"
compound="CCCOc1nc(N)c2cnn(C3CCCCO3)c2n1 (configuration not stated)" system_name="UACC-62 melanoma" reported_measurement="> 100 µM"
compound=CC(=O)[O-].CC(=O)[O-].O=C(N/N=C/c1cc(Cl)cc(Cl)c1O)c1ccncc1.[Cu+2] system_name="UACC-62 melanoma" reported_measurement="> 100 µM"
compound="CC(=O)OCc1ccc2c(c1)C(O)NC(=O)O2 (configuration not stated)" system_name="UACC-62 melanoma" reported_measurement="> 100 µM"
compound="O=S1C(=c2ccc(=C3Sc4ccccc4S3)cc2)Sc2ccccc21 (configuration not stated)" system_name="UACC-62 melanoma" reported_measurement="35.2 µM"
compound=Cn1cc(-c2cc3c(N4CCN(c5ncc([C@@](C)(N)c6ccc(F)cc6)cn5)CC4)ncnn3c2)cn1 system_name="UACC-62 melanoma" reported_measurement="> 100 µM"
compound=N#Cc1nc(-c2cnccn2)oc1N system_name="UACC-62 melanoma" reported_measurement="> 100 µM"
compound="COc1cc(OCCN(C)C)c2[nH]c(C(=O)N3CC(CCl)c4ccc(N)cc43)cc2c1 (configuration not stated)" system_name="UACC-62 melanoma" reported_measurement="0.567 µM"
compound=COc1cc(-c2cccs2)sc1-c1cccs1 system_name="UACC-62 melanoma" reported_measurement="> 100 µM"
compound=COc1ccccc1NC(=O)c1cc2cc(Br)ccc2cc1O system_name="UACC-62 melanoma" reported_measurement="8.23 µM"
compound=COc1cc2c(/C=C3/C(=O)Nc4cccc(Cl)c43)c(Cl)[nH]c2cc1C system_name="UACC-62 melanoma" reported_measurement="4.21 µM"
compound=O=c1c2cccnc2ncn1CCN1CCCCC1 system_name="UACC-62 melanoma" reported_measurement="> 100 µM"
compound=CCCCCCc1cc2cc(-c3cn4ccsc4n3)c(=O)oc2cc1O system_name="UACC-62 melanoma" reported_measurement="> 50.8 µM"
compound=O=C(C(=O)n1ccc2ccccc21)n1ccc2ccccc21 system_name="UACC-62 melanoma" reported_measurement="> 100 µM"
compound=O=C1c2sc(-c3ccc(Cl)cc3)cc2-n2cccc21 system_name="UACC-62 melanoma" reported_measurement="> 100 µM"
compound="Cc1c2oc3c(C)ccc(C(=O)NC4C(=O)NC(C(C)C)C(=O)N5CCCC5C(=O)N(C)CC(=O)N(C)C(C(C)C)C(=O)OC4C)c3nc-2c(C(=O)NC2C(=O)NC(C(C)C)C(=O)N3CCCC3C(=O)N(C)CC(=O)N(C)C(C(C)C)C(=O)OC2C)c(N)c1=O (configuration not stated) (I: TVP[Sar][NMeV] / II: TVP[Sar][NMeV]; ester I:1-I:C, II:1-II:C; linker I:N-II:N via Actinocin(9to1); configuration not given here)" system_name="UACC-62 melanoma" reported_measurement="0.00192 µM"
compound="Cc1ccc(S(=O)(=O)N2CCC2c2ccccc2)cc1 (configuration not stated)" system_name="UACC-62 melanoma" reported_measurement="> 100 µM"

###

Some molecules, each annotated with its measured TGI.
# Test system: HCT-116 colon
# PROTOCOL: NCI tumour cell line growth inhibition, 48 h
PROPERTY_NAME: TGI

molecule=O=C(O)C(Cl)Cl reported_measurement="> 10000 µM"
molecule="CC(C)C(NC(=O)Oc1ccccc1)C(=O)NC1c2c(Br)sc(Br)c2C(=O)C1O (stereo unspecified)" reported_measurement="7.34 µM"
molecule="O=S1C(=c2ccc(=C3Sc4ccccc4S3)cc2)Sc2ccccc21 (stereo unspecified)" reported_measurement="> 56.6 µM"
molecule=O=C(O)Cc1ccc([N+](=O)[O-])cc1[N+](=O)[O-] reported_measurement="> 100 µM"
molecule=N#CCCC[Si]12OCCN(CCO1)CCO2 reported_measurement="> 100 µM"
molecule=O=[N+]([O-])c1ccc2nc(Nc3ccccc3)c(Nc3ccccc3)nc2c1 reported_measurement="1.82 µM"

###

Some compounds, each annotated with its measured TGI.
# System: NCI-H226 lung
# PROTOCOL: NCI tumour cell line growth inhibition, 48 h
PROPERTY_NAME: TGI (µM)

compound=N#Cc1cccc(-n2[nH]c(=O)ccc2=O)c1 property_name=TGI sign_qualifier=> reported_measurement=100
compound="CN1C(=O)C(=O)N2c3ccc(Cl)cc3C3(c4ccccc4)N=CC12O3 (stereo not drawn)" property_name=TGI sign_qualifier== reported_measurement=26.8
compound="CN(C)CC1CCC/C1=N/OC(=O)c1ccccc1 (stereo not drawn)" property_name=TGI sign_qualifier=> reported_measurement=100
compound=[O-][Cl+3]([O-])([O-])[O-].[O]=[Ru]=[O].c1ccc(-c2ccccn2)nc1.c1ccc(-c2ccccn2)nc1 property_name=TGI sign_qualifier=> reported_measurement=100
compound="O=C1OCC2=C1C(c1cccc(Br)c1)c1cc3c(cc1N2CCO)OCCO3 (stereo not drawn)" property_name=TGI sign_qualifier== reported_measurement=0.738
compound=CC1(C)[C@@H](NOCCCN)CC[C@]2(C)[C@H]3C(=O)C=C4[C@@H]5C[C@](C)(C(=O)O)CC[C@]5(C)CC[C@@]4(C)[C@]3(C)CC[C@@H]12 property_name=TGI sign_qualifier== reported_measurement=19.2
compound=CC(=O)Nc1cc2ccc(=O)oc2cc1Cl property_name=TGI sign_qualifier=> reported_measurement=100
compound="O=C(CC1Sc2ccccc2NC1=O)Nc1ccccc1[N+](=O)[O-] (stereo not drawn)" property_name=TGI sign_qualifier=> reported_measurement=100
compound=C=C1C(=O)O[C@H]2[C@H]1CC/C(CNC(=O)c1cc3ccccc3[nH]1)=C\CC[C@@]1(C)O[C@@H]21 property_name=TGI sign_qualifier== reported_measurement=10.7
compound=COc1ccc(/C=C/COC(C)=O)cc1OC property_name=TGI sign_qualifier=> reported_measurement=100
compound=Cc1nc(-c2nc(C)c(C(=O)NNC(=O)C[n+]3ccccc3)s2)sc1C(=O)NNC(=O)C[n+]1ccccc1 property_name=TGI sign_qualifier=> reported_measurement=100
compound="COc1ccc(C2=CC(C(C)=C(C(N)=O)C(N)=O)C=C(c3ccc(Br)cc3)C2)c(OC)c1 (stereo not drawn)" property_name=TGI sign_qualifier=> reported_measurement=100
compound=CC(=O)OCCOCNC(=S)N/N=C/c1ccc([N+](=O)[O-])o1 property_name=TGI sign_qualifier=> reported_measurement=100
compound="C=C1C(=O)O[C@@H]2/C=C(C)/C=C\\[C@@H]3O[C@@]3(C)C[C@@H](O)C12 (stereo partly drawn)" property_name=TGI sign_qualifier== reported_measurement=29.7
compound=Cc1ccc2nc(-c3ccccc3)cc(=O)n2c1 property_name=TGI sign_qualifier=> reported_measurement=100
compound=COc1cc(/C=C2\CN(S(=O)(=O)c3ccc(C)cc3)C/C(=C\c3cc(CN4CCCC4)c(O)c(OC)c3)C2=O)cc(CN2CCCC2)c1O property_name=TGI sign_qualifier== reported_measurement=3.16
compound=CC(C)[C@@H]1NC(=O)[C@]2(C)CSC(=N2)c2ccnc(c2)CNC(=O)C[C@@H](/C=C/CCS)OC1=O property_name=TGI sign_qualifier== reported_measurement=12.4
compound=C(=C/CCCN1O[C@@H](CCCCCCCCc2cccnc2)[C@H]2CCC[C@H]21)/CCCCCCCCCc1cccnc1 property_name=TGI sign_qualifier== reported_measurement=36.8

###

Some molecules, each annotated with its measured TGI.
# Test system: OVCAR-4 ovarian
# PROTOCOL: NCI tumour cell line growth inhibition, 48 h
PROPERTY_NAME: TGI (µM)

molecule=NCCNCCNCCN system_name="OVCAR-4 ovarian" property_name=TGI sign_qualifier=> reported_measurement=100
molecule=CC1(C)[C@@H](NOCCCN)CC[C@]2(C)[C@H]3C(=O)C=C4[C@@H]5C[C@](C)(C(=O)O)CC[C@]5(C)CC[C@@]4(C)[C@]3(C)CC[C@@H]12 system_name="OVCAR-4 ovarian" property_name=TGI sign_qualifier== reported_measurement=34.8
molecule=CC(=C(c1ccc(OCCN2CCCCC2)cc1)c1ccc(OCCN2CCCCC2)cc1)c1ccc(Cl)cc1 system_name="OVCAR-4 ovarian" property_name=TGI sign_qualifier== reported_measurement=0.893
molecule=Nc1nc(Cl)cc(OCC2(CO)CC=CC2)n1 system_name="OVCAR-4 ovarian" property_name=TGI sign_qualifier=> reported_measurement=100
molecule=COc1c(CC(C)=O)ccc2c1C(=O)c1ccc(C=O)c(OC(C)=O)c1C2=O system_name="OVCAR-4 ovarian" property_name=TGI sign_qualifier== reported_measurement=30.4
molecule=COc1ccc2c(c1)[n+]([O-])c(C(N)=O)c(N)[n+]2[O-] system_name="OVCAR-4 ovarian" property_name=TGI sign_qualifier=> reported_measurement=100
molecule=COc1cccc(-c2cc(=O)c3cc(N4CCCCC4)ccc3[nH]2)c1 system_name="OVCAR-4 ovarian" property_name=TGI sign_qualifier=> reported_measurement=57.9
molecule=C#Cc1cccc(Nc2nc3cc([N+](=O)[O-])ccc3nc2Nc2ccc(O)cc2)c1 system_name="OVCAR-4 ovarian" property_name=TGI sign_qualifier== reported_measurement=5.03
molecule="O=C(NC1C=CCC2C(=O)N(c3ccccc3)C(=O)C12)OCc1ccccc1 (centres undefined)" system_name="OVCAR-4 ovarian" property_name=TGI sign_qualifier=> reported_measurement=100
molecule="O=C(CC1Sc2ccccc2NC1=O)Nc1ccccc1[N+](=O)[O-] (centres undefined)" system_name="OVCAR-4 ovarian" property_name=TGI sign_qualifier=> reported_measurement=100
molecule="Cc1ccc(C(=O)OC(C(=O)O)C(OC(=O)c2ccc(C)cc2)C(=O)O)cc1 (centres undefined) (tested in a mixture with another compound)" system_name="OVCAR-4 ovarian" property_name=TGI sign_qualifier== reported_measurement=21.6
molecule="CC1=C/C(=N\\NC(N)=S)C(C(O)(C(F)(F)F)C(F)(F)F)C(C)(C)C1 (centres undefined)" system_name="OVCAR-4 ovarian" property_name=TGI sign_qualifier=> reported_measurement=10
molecule=O=C(O)C(Cl)Cl system_name="OVCAR-4 ovarian" property_name=TGI sign_qualifier=> reported_measurement=10000
molecule="CCCC/C=C/C=C/C=C/CCCCCCCC(=O)OCC(COC(=O)CCCCCCC/C=C/C1C=CC(CCCC)C(C(=O)O)C1C(=O)O)OC(=O)CCCCCCC/C=C/C=C/C=C/CCCC (centres undefined) (tested in a mixture with another compound)" system_name="OVCAR-4 ovarian" property_name=TGI sign_qualifier== reported_measurement=34.7
molecule=O=C1C(Br)=C(Br)C(=O)c2ccc(=O)ccc21 system_name="OVCAR-4 ovarian" property_name=TGI sign_qualifier== reported_measurement=32.7
molecule=C[C@]12[C@@H]3CC[C@H]1[C@@H](O)C(=O)N2CC3 system_name="OVCAR-4 ovarian" property_name=TGI sign_qualifier=> reported_measurement=100
molecule=CCCCCCOc1ccc(/C=N/Nc2cc(C)nc3ccc(Cl)cc23)cc1 system_name="OVCAR-4 ovarian" property_name=TGI sign_qualifier== reported_measurement=3.18
molecule="COc1ccc(C(c2cc(OC)c(OC)c(OC)c2)n2cncn2)cc1O (centres undefined)" system_name="OVCAR-4 ovarian" property_name=TGI sign_qualifier=> reported_measurement=100
molecule="O=C1c2ccccc2-n2nnnc2C2CSCN12 (centres undefined)" system_name="OVCAR-4 ovarian" property_name=TGI sign_qualifier=> reported_measurement=100
